# Tested on: OVCAR-4 ovarian
# assay-summary: NCI tumour cell line growth inhibition, 48 h
Please provide measured TGI for the entries that follow.

### Prompt Look up TGI: CC1=C(C(=O)Nc2cc(F)c(F)cc2F)C(c2ccc(N(C)C)cc2)C(C(=O)Nc2cc(F)c(F)cc2F)=C(C)N1
### Response > 79.1 µM

### Prompt Look up TGI: Cc1cc(N)c2cc(NC(=O)/C=C\c3ccccc3Cl)ccc2n1
### Response 0.971 µM

### Prompt Look up TGI: Cc1c2cnccc2c(C)c2c1c1ccccc1n2CCCCCCCl
### Response > 29.3 µM

### Prompt Look up TGI: COc1ccc(/C=C2\CC3C4CC=C5C[C@@H](N6CCCC6)CC[C@]5(C)C4CC[C@]3(C)[C@H]2O)cc1OC (stereo partly drawn)
### Response 17.1 µM

### Prompt Look up TGI: O=C1CSc2ccnc(=O)n21
### Response > 100 µM

### Prompt Look up TGI: CCOC(=O)N1C/C(=C\c2ccc(N(C)C)cc2)C(=O)/C(=C/c2ccc(N(C)C)cc2)C1
### Response > 100 µM

### Prompt Look up TGI: CCCOC(=O)C1C(c2ccc(OC)cc2)NC(c2ccc(OC)cc2)C(C(=O)OCCC)S1(=O)=O (stereo not drawn)
### Response > 100 µM

### Prompt Look up TGI: COc1cccc(C2=C(c3cn(C)c4c(C)cccc34)C(=O)NC2=O)c1
### Response > 25 µM

###

Please provide measured TGI for the entries that follow.
# Test system: OVCAR-8 ovarian
# assay-summary: NCI tumour cell line growth inhibition, 48 h

### Prompt Look up TGI: CN(C)Cc1cc(C(=O)/C=C/c2ccc(Cl)cc2Cl)cc(CN(C)C)c1O
### Response 11 µM

### Prompt Look up TGI: O=C(c1ccsc1)c1nccc2c1cnc1ccccc12
### Response > 100 µM

### Prompt Look up TGI: CC1(C)CCOC(Sc2ccccc2)C1 (centres undefined)
### Response > 100 µM

### Prompt Look up TGI: COC(=O)/C=C1\C(=O)Nc2ccc(Br)cc21
### Response 5.78 µM

###

# System: NCI-H522 lung
# assay-summary: NCI tumour cell line growth inhibition, 48 h
Please provide measured TGI for the entries that follow.

### Prompt Look up TGI: O=NN(CC(=O)NNc1ccccc1)CC(=O)NNc1ccccc1
### Response > 100 µM

### Prompt Look up TGI: COc1cnc2oc3ccc(O)cc3c2c1-c1ccccc1
### Response > 100 µM

### Prompt Look up TGI: c1ccc(Nc2nnc(-c3ccccc3Nc3ccccc3-c3nnc(Nc4ccccc4)s3)s2)cc1
### Response > 100 µM

### Prompt Look up TGI: O=C1NCC2(CCN(CC3COc4ccccc4O3)CC2)N1c1ccccc1 (stereo not drawn)
### Response > 100 µM

### Prompt Look up TGI: COc1ccc2[nH]c(=O)cc(C)c2c1[N+](=O)[O-]
### Response > 100 µM

### Prompt Look up TGI: Cc1ccccc1-c1cc(=O)c2cc(C)c(C)c(C(=O)O)c2o1
### Response > 100 µM

### Prompt Look up TGI: N#Cc1ccccc1NC(=O)C(O)C(O)C(O)C(O)C=O (stereo not drawn)
### Response > 100 µM

### Prompt Look up TGI: Cc1ccc(S(=O)(=O)NC(=O)Nc2ncn[nH]2)cc1
### Response > 100 µM

### Prompt Look up TGI: CSc1nc2c(ncn2C2OC(CO)C(O)C(O)C2O)c(=O)n1C (stereo not drawn)
### Response > 100 µM

### Prompt Look up TGI: Cc1c(C(=O)Nc2ccc(Oc3ccnc4cc(OCC(C)(C)O)ccc34)c(F)c2)c(=O)n(-c2ccccc2)n1C
### Response > 100 µM

### Prompt Look up TGI: O=C1OC(=O)c2c1cc1cc3c(cc1c2-c1ccc2c(c1)OCO2)OCO3
### Response > 100 µM

### Prompt Look up TGI: O=C(Nc1cccc2[nH]c(C(F)(F)F)nc12)c1ccc(Br)cc1F
### Response 8.26 µM

### Prompt Look up TGI: O=C1c2ccccc2-n2c1nc1ccc([N+](=O)[O-])cc1c2=O
### Response > 100 µM

### Prompt Look up TGI: CC1=CC(=O)c2ccc3c4ccccc4n(C)c3c2C1=O
### Response 78.9 µM

### Prompt Look up TGI: CCCOC(=O)C1C(c2ccc(OC)cc2)NC(c2ccc(OC)cc2)C(C(=O)OCCC)S1(=O)=O (stereo not drawn)
### Response > 100 µM

### Prompt Look up TGI: COc1cc(/C=C2\CC3C4CC=C5C[C@@H](N6CCCC6)CC[C@]5(C)C4CC[C@]3(C)[C@H]2OC(C)=O)ccc1OCCCn1ccnc1 (stereo partly drawn)
### Response > 27.5 µM

### Prompt Look up TGI: CC(C)(C)c1cc(C(C)(C)C)c(SSc2c(C(C)(C)C)cc(C(C)(C)C)c(O)c2O)c(O)c1O
### Response 16.6 µM

### Prompt Look up TGI: CCOC(=O)CCC(NC(=O)c1ccc(Oc2nc3cc(N)cc(N)c3nc2-c2ccccc2)cc1)C(=O)OCC (stereo not drawn)
### Response > 100 µM

### Prompt Look up TGI: COc1cccc2c1C(=O)c1c(O)c3c(c(O)c1C2=O)C[C@@](O)(C(=O)CO)C[C@@H]3OC1CC2C(OCN2CN2COC3C(C)OC(O[C@H]4C[C@](O)(C(=O)CO)Cc5c(O)c6c(c(O)c54)C(=O)c4c(OC)cccc4C6=O)CC32)C(C)O1 (stereo partly drawn)
### Response 0.0238 µM

### Prompt Look up TGI: N/N=C1\C(=O)N(c2ccc(Cl)c(Cl)c2)C(=O)C1C(=O)Nc1ccc(Cl)c(Cl)c1 (stereo not drawn)
### Response > 100 µM

### Prompt Look up TGI: Cc1ccc2c(n1)C(=O)c1cc(C)c(C)cc1C2=O
### Response 56.8 µM

### Prompt Look up TGI: CCn1cnc(C[C@H](NC(=O)[C@@H](NC(=O)Nc2cc(C(F)(F)F)cc(C(F)(F)F)c2)C(C)(C)C)C(=O)OC)c1
### Response > 10 µM

### Prompt Look up TGI: COc1ccc(-n2c(C)nc3ccc(NC4OC(COC(C)=O)C(OC(C)=O)C(OC(C)=O)C4OC(C)=O)cc3c2=O)cc1 (stereo not drawn)
### Response 47.5 µM

### Prompt Look up TGI: COC(=O)C(C(=O)C(=O)Nc1nc2ccc(OC)cc2s1)c1cnc2ccccc2n1 (stereo not drawn)
### Response > 100 µM

### Prompt Look up TGI: CCOc1ccc(NC(=O)/C=C/c2ccco2)cc1
### Response > 100 µM

### Prompt Look up TGI: Nc1ccccc1SC(CC(=O)c1ccccc1)c1c(Cl)cccc1Cl (stereo not drawn)
### Response 12.6 µM

### Prompt Look up TGI: Oc1ccc(Br)cc1C=Nc1ccc(Oc2ccc(N=Cc3cc(Br)ccc3O)cc2)cc1
### Response > 19.6 µM

### Prompt Look up TGI: CC(C)CC1CC2C(=O)N(c3ccccc3)C(=O)C2c2[nH]c3ccccc3c21 (stereo not drawn)
### Response > 100 µM

###

# System: UACC-62 melanoma
# assay-summary: NCI tumour cell line growth inhibition, 48 h
readout: TGI

### Prompt Look up TGI: O=C1c2ccccc2-n2c1nc1ccc([N+](=O)[O-])cc1c2=O
### Response > 100 µM

### Prompt Look up TGI: O=C1/C(=C/c2ccc([N+](=O)[O-])s2)Oc2ccc(Br)cc21
### Response 0.963 µM

### Prompt Look up TGI: COc1cc2c(cc1OCCCN1CCN(CCCOc3cc4c(cc3OC)C(=O)N3C[C@H](F)C[C@H]3C=N4)CC1)N=C[C@@H]1C[C@@H](F)CN1C2=O
### Response 0.145 µM

### Prompt Look up TGI: N#Cc1ccc(N=NN2CCCC2)cc1
### Response > 100 µM

### Prompt Look up TGI: O=C1c2c[n+](Cc3ccccc3)ccc2-c2nc3ccccc3c3ccnc1c23
### Response 1.78 µM

### Prompt Look up TGI: COC(=O)c1c(C)c2c(c(C)c1O)OC(=O)c1c(C)cc(O)c(C=O)c1O2
### Response > 100 µM

### Prompt Look up TGI: Clc1nc(NC23CC4CC(CC(C4)C2)C3)nc(NC23CC4CC(CC(C4)C2)C3)n1
### Response > 100 µM

### Prompt Look up TGI: c1ccc([P+](Cc2ccc(C[P+](c3ccccc3)(c3ccccc3)c3ccccc3)s2)(c2ccccc2)c2ccccc2)cc1
### Response > 100 µM

### Prompt Look up TGI: CCCCCCCCCCCCNC(=S)OCCCC
### Response > 100 µM

### Prompt Look up TGI: Cc1cc(O)c(C(O)c2ccccn2)cc1O (stereo not given)
### Response 28.7 µM

### Prompt Look up TGI: COc1cccc(/C=N/[N+](C)(C)C)c1O
### Response > 10 µM

### Prompt Look up TGI: ON[C@@H]1C=C[C@H](n2cnc3c(NC4CC4)ncnc32)C1
### Response > 100 µM

### Prompt Look up TGI: Cc1ccc(C)c(NC(=O)C(=O)C(C2C(C)CC(=O)C2CC(=O)O)[N+](=O)[O-])c1 (stereo not given)
### Response > 100 µM

### Prompt Look up TGI: Cc1ccnn1CCc1ccc(Cl)cc1Cl
### Response 29.1 µM

### Prompt Look up TGI: CN1C=C(C(N)=O)Cc2ccsc21
### Response > 100 µM
